Test system: 171881-019-R-J1-PDC tumor spheroids, viability
Assay: Anticancer human tumor 171881-019-R-J1-PDC patient-derived invasive breast carcinoma cell line growth inhibition [GQUAD]
Settings: second compound 0.316 µM; first compound 0.000999 µM; hits give low values; spheroids with HUVEC and MSC
assay_readout: viability, T/C

• Cc1[nH]c2ccccc2c1CCNCc1ccc(/C=C/C(=O)NO)cc1 + CN(C)c1ccc(Nc2c3ccc(NC(=O)CCN4CCCC4)cc3nc3cc(NC(=O)CCN4CCCC4)ccc23)cc1 = 46.9%
• Cc1[nH]c2ccccc2c1CCNCc1ccc(/C=C/C(=O)NO)cc1 + Cc1[nH]c2ccc(F)cc2c1-c1nc2c3cccnc3c3ncccc3c2[nH]1 = 91.7%
• CC[C@@]1(O)C(=O)OCc2c1cc1n(c2=O)Cc2cc3c(CN(C)C)c(O)ccc3nc2-1 + Cc1cnc(CNC(=O)c2c(=O)c3ccc(N4CCCN(C)CC4)nc3n3c2sc2ccccc23)cn1 = 74%
• Cn1ncnc1[C@H]1c2n[nH]c(=O)c3cc(F)cc(c23)N[C@@H]1c1ccc(F)cc1 + Cc1[nH]c2ccc(F)cc2c1-c1nc2c3cccnc3c3ncccc3c2[nH]1 = 102%
• Cn1ncnc1[C@H]1c2n[nH]c(=O)c3cc(F)cc(c23)N[C@@H]1c1ccc(F)cc1 + Cc1cnc(CNC(=O)c2c(=O)c3ccc(N4CCCN(C)CC4)nc3n3c2sc2ccccc23)cn1 = 73.7%
• CCc1c2c(nc3ccc(O)cc13)-c1cc3c(c(=O)n1C2)COC(=O)[C@]3(O)CC + Cc1[nH]c2ccc(F)cc2c1-c1nc2c3cccnc3c3ncccc3c2[nH]1 = 74.4%

---

Tested on: 171881-019-R-J1-PDC tumor spheroids, viability
Assay: Anticancer human tumor 171881-019-R-J1-PDC cell line growth inhibition [GQUAD];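 further: spheroids exposed to compounds for 7 days; 100% = DMSO vehicle control viability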
Conditions: second compound 0.1 µM; first compound 0.0316 µM; hits give low values; spheroids with HUVEC and MSC
The entries below are paired with their reported viability, T/C.
assay_readout: viability, T/C (%)

• Cc1cccc(N(C)C(=O)C2C(O)CCN2c2nc(C)cc(C(F)(F)F)c2C#N)c1 (stereo unspecified) + Cc1[nH]c2ccc(F)cc2c1-c1nc2c3cccnc3c3ncccc3c2[nH]1 = 105
• C=CCn1c(=O)c2cnc(Nc3ccc(N4CCN(C)CC4)cc3)nc2n1-c1cccc(C(C)(C)O)n1 + Cc1cnc(CNC(=O)c2c(=O)c3ccc(N4CCCN(C)CC4)nc3n3c2sc2ccccc23)cn1 = 72.9
• CC1COCCN1c1cc(-c2ccnn2C)c2ccnc(-c3ccn[nH]3)c2n1 (stereo unspecified) + Cc1cnc(CNC(=O)c2c(=O)c3ccc(N4CCCN(C)CC4)nc3n3c2sc2ccccc23)cn1 = 42.5
• CCCS(=O)(=O)Nc1ccc(F)c(C(=O)c2c[nH]c3ncc(-c4ccc(Cl)cc4)cc23)c1F + CN(C)c1ccc(Nc2c3ccc(NC(=O)CCN4CCCC4)cc3nc3cc(NC(=O)CCN4CCCC4)ccc23)cc1 = 76.9
• CC[C@@]1(O)C(=O)OCc2c1cc1n(c2=O)Cc2cc3c(CN(C)C)c(O)ccc3nc2-1 + CN(C)c1ccc(Nc2c3ccc(NC(=O)CCN4CCCC4)cc3nc3cc(NC(=O)CCN4CCCC4)ccc23)cc1 = 115
• CC1COCCN1c1cc(C2(S(C)(=N)=O)CC2)nc(-c2ccnc3[nH]ccc23)n1 (stereo unspecified) + Cc1[nH]c2ccc(F)cc2c1-c1nc2c3cccnc3c3ncccc3c2[nH]1 = 103
• CC(C)n1c(=O)n(C)c2cnc3cc(F)c(-c4ccc(OCCCN5CCCCC5)nc4)cc3c21 + Cc1cnc(CNC(=O)c2c(=O)c3ccc(N4CCCN(C)CC4)nc3n3c2sc2ccccc23)cn1 = 62.4
• O=c1[nH]cc(F)c(=O)[nH]1 + CN(C)c1ccc(Nc2c3ccc(NC(=O)CCN4CCCC4)cc3nc3cc(NC(=O)CCN4CCCC4)ccc23)cc1 = 79.7
• CC(C)(O)C1CCC(Nc2ccc3ncc(-c4cccc(C(F)(F)F)c4)n3n2)CC1 (stereo unspecified) + CN(C)c1ccc(Nc2c3ccc(NC(=O)CCN4CCCC4)cc3nc3cc(NC(=O)CCN4CCCC4)ccc23)cc1 = 94.5
• Cn1ncnc1[C@H]1c2n[nH]c(=O)c3cc(F)cc(c23)N[C@@H]1c1ccc(F)cc1 + Cc1[nH]c2ccc(F)cc2c1-c1nc2c3cccnc3c3ncccc3c2[nH]1 = 101
• COc1cccc2c1C(=O)c1c(O)c3c(c(O)c1C2=O)CC(O)(C(=O)CO)CC3OC1CC(N)C(O)C(C)O1 (stereo unspecified) + CN(C)c1ccc(Nc2c3ccc(NC(=O)CCN4CCCC4)cc3nc3cc(NC(=O)CCN4CCCC4)ccc23)cc1 = 109

---

Test system: 171881-019-R-J1-PDC tumor spheroids, viability
Test: Anticancer human tumor 171881-019-R-J1-PDC cell line growth inhibition [GQUAD];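 further: spheroids exposed to compounds for 7 days; 100% = DMSO vehicle control viability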
Conditions: second compound 0.1 µM; first compound 0.0316 µM; hits give low values; spheroids with HUVEC and MSC
Source text: DNA G-quadruplex Stabilizer Agents in Combinations in Complex Spheroids A high-throughput screen of multi-cell type tumor spheroids was designed to identify active combinations of DNA G-quadruplex stabilizer agents and targeted small molecules. […] Compounds. […] If the clinical Cmax for an agent had not been determined, the highest concentration tested was 10 microM. […]
The entries below are paired with their reported viability, T/C.
assay_readout: viability, T/C (%)

* C#Cc1c(F)ccc2cc(O)cc(-c3ncc4c(N5CC6CCC(C5)N6)nc(OCC56CCCN5CC(F)C6)nc4c3F)c12 (stereo unspecified) + Cc1[nH]c2ccc(F)cc2c1-c1nc2c3cccnc3c3ncccc3c2[nH]1 | 92.8
* CC(C)(O)C1CCC(Nc2ccc3ncc(-c4cccc(C(F)(F)F)c4)n3n2)CC1 (stereo unspecified) + Cc1cnc(CNC(=O)c2c(=O)c3ccc(N4CCCN(C)CC4)nc3n3c2sc2ccccc23)cn1 | 88.7
* O=C(NO)c1cnc(N2CCN(S(=O)(=O)c3ccc4ccccc4c3)CC2)nc1 + CN(C)c1ccc(Nc2c3ccc(NC(=O)CCN4CCCC4)cc3nc3cc(NC(=O)CCN4CCCC4)ccc23)cc1 | 86.7
* O=C(NO)c1cnc(N2CCN(S(=O)(=O)c3ccc4ccccc4c3)CC2)nc1 + Cc1cnc(CNC(=O)c2c(=O)c3ccc(N4CCCN(C)CC4)nc3n3c2sc2ccccc23)cn1 | 75.5
* CC[C@@]1(O)C(=O)OCc2c1cc1n(c2=O)Cc2cc3c(CN(C)C)c(O)ccc3nc2-1 + Cc1cnc(CNC(=O)c2c(=O)c3ccc(N4CCCN(C)CC4)nc3n3c2sc2ccccc23)cn1 | 64.1
* O=C(NO)c1cnc(N2CCN(S(=O)(=O)c3ccc4ccccc4c3)CC2)nc1 + Cc1[nH]c2ccc(F)cc2c1-c1nc2c3cccnc3c3ncccc3c2[nH]1 | 88.4
* Nc1ccn(C2OC(CO)C(O)C2(F)F)c(=O)n1 (stereo unspecified) + CN(C)c1ccc(Nc2c3ccc(NC(=O)CCN4CCCC4)cc3nc3cc(NC(=O)CCN4CCCC4)ccc23)cc1 | 33.7
* CC1COCCN1c1cc(-c2ccnn2C)c2ccnc(-c3ccn[nH]3)c2n1 (stereo unspecified) + Cc1[nH]c2ccc(F)cc2c1-c1nc2c3cccnc3c3ncccc3c2[nH]1 | 71.2
* C=CC(=O)N1CCN(c2nc(=O)n(-c3c(C)ccnc3C(C)C)c3nc(-c4c(O)cccc4F)c(F)cc23)C(C)C1 (stereo unspecified) + Cc1[nH]c2ccc(F)cc2c1-c1nc2c3cccnc3c3ncccc3c2[nH]1 | 83
* CC1COCCN1c1cc(-c2ccnn2C)c2ccnc(-c3ccn[nH]3)c2n1 (stereo unspecified) + CN(C)c1ccc(Nc2c3ccc(NC(=O)CCN4CCCC4)cc3nc3cc(NC(=O)CCN4CCCC4)ccc23)cc1 | 64.8
* C#Cc1c(F)ccc2cc(O)cc(-c3ncc4c(N5CC6CCC(C5)N6)nc(OCC56CCCN5CC(F)C6)nc4c3F)c12 (stereo unspecified) + CN(C)c1ccc(Nc2c3ccc(NC(=O)CCN4CCCC4)cc3nc3cc(NC(=O)CCN4CCCC4)ccc23)cc1 | 87.8

---

Test system: 171881-019-R-J1-PDC tumor spheroids, viability
Experiment: Anticancer human tumor 171881-019-R-J1-PDC cell line growth inhibition [GQUAD];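 further: spheroids exposed to compounds for 7 days; 100% = DMSO vehicle control viability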
Details: second compound 0.316 µM; first compound 0.1 µM; hits give low values; spheroids with HUVEC and MSC
The entries below are paired with their reported viability, T/C.
assay_readout: viability, T/C (%)

• CC1COCCN1c1cc(C2(S(C)(=N)=O)CC2)nc(-c2ccnc3[nH]ccc23)n1 (stereo not given) + CN(C)c1ccc(Nc2c3ccc(NC(=O)CCN4CCCC4)cc3nc3cc(NC(=O)CCN4CCCC4)ccc23)cc1 = 88
• O=c1[nH]cc(F)c(=O)[nH]1 + CN(C)c1ccc(Nc2c3ccc(NC(=O)CCN4CCCC4)cc3nc3cc(NC(=O)CCN4CCCC4)ccc23)cc1 = 69.4
• Cc1cccc(N(C)C(=O)C2C(O)CCN2c2nc(C)cc(C(F)(F)F)c2C#N)c1 (stereo not given) + Cc1cnc(CNC(=O)c2c(=O)c3ccc(N4CCCN(C)CC4)nc3n3c2sc2ccccc23)cn1 = 73.1
• COc1cccc2c1C(=O)c1c(O)c3c(c(O)c1C2=O)CC(O)(C(=O)CO)CC3OC1CC(N)C(O)C(C)O1 (stereo not given) + CN(C)c1ccc(Nc2c3ccc(NC(=O)CCN4CCCC4)cc3nc3cc(NC(=O)CCN4CCCC4)ccc23)cc1 = 55.2
• CC(=O)O[C@H]1C(=O)[C@@]2(C)[C@H]([C@H](OC(=O)c3ccccc3)[C@]3(O)C[C@H](OC(=O)[C@H](O)[C@@H](NC(=O)c4ccccc4)c4ccccc4)C(C)=C1C3(C)C)[C@]1(OC(C)=O)CO[C@@H]1C[C@@H]2O + CN(C)c1ccc(Nc2c3ccc(NC(=O)CCN4CCCC4)cc3nc3cc(NC(=O)CCN4CCCC4)ccc23)cc1 = 22.9
